So I've got a bunch of compounds here, and I need their GST act. values.
test system: Glutathione S-Transferase; experiment: Glutathione S-transferase (GST) activity in tissue cytosol of treated mice, CDNB substrate; type: in vivo, Female A/J mice; settings: lung; dose 0.02 mmol/Kg body weight, gavage in corn oil
Give bare numbers, in μmol/min mg protein.

GST act. reported for this compound N#C[Se]Cc1ccc(C[Se]C#N)cc1 [p-XSC, 1,4-phenylenebis(methylene)selenocyanate, reference compound] : 0.48

Next item in the queue.
# compound N#C[Se]Cc1ccc(C[Se]C#N)s1 [(2) TDMSC, thienyl-2,5-di-methylene selenocyanate] ; its GST act. = 0.49
